- Tested on: Human Keratinocytes (HaCaT)
- TEST_DETAILS: In vitro combination methotrexate and IS181 (MTT)
- EXPERIMENTAL_PARAMETERS: read-out: 50% Inhibition (concentration of MTX), 72 h, with IS181 50 μg/ml
EXPERIMENTAL_READOUT: IC50

- MOLECULE: "CN(Cc1cnc2nc(N)nc(N)c2n1)c1ccc(C(=O)N[C@@H](CCC(=O)O)C(=O)O)cc1 [MTX, methotrexate]"
  OBSERVED_VALUE: "> 5 µM"

====

- TEST_DETAILS: Cell viability (MTT assay) in SK-MEL-28
- Assay type: cell-based, Human
- EXPERIMENTAL_PARAMETERS: human, SK-MEL-28 melanoma cells; SK-MEL-28, 72 h, 2000 μg/ml

- SUBSTANCE: "H-WVQRVVEKFLK-OH [IS181]"
  cytotoxicity at 72 h, 2000 μg/ml: "92%"

====

- TEST_DETAILS: Cell viability (MTT assay) in PBMCs
- Format: cell-based, Human
- EXPERIMENTAL_PARAMETERS: human, peripheral blood mononuclear cells (PBMCs); PBMCs, 72 h, 50 μg/ml
EXPERIMENTAL_READOUT: cytotoxicity at 72 h, 50 μg/ml (%)

- SUBSTANCE: "H-WVQRVVEKFLK-OH [IS181]"
  U: "%"
  OBSERVED_VALUE: 20.1

====

- TEST_DETAILS: Cell viability (MTT assay) in SK-MEL-28
- Format: cell-based, Human
- EXPERIMENTAL_PARAMETERS: human, SK-MEL-28 melanoma cells; SK-MEL-28, 72 h, 10 μg/ml
EXPERIMENTAL_READOUT: cytotoxicity at 72 h, 10 μg/ml

- SUBSTANCE: "H-WVQRVVEKFLK-OH [IS181]"
  OBSERVED_VALUE: "6.16%"

====

- TEST_DETAILS: In vitro combination Anthralin and IS 181 (MTT)
- Assay type: cell-based, Human
- EXPERIMENTAL_PARAMETERS: human, HaCaT keratinocytes, IS 181 50 μg/ml alone, read-out: percent inhibition of cell viability/cytotoxicity

- SUBSTANCE: "H-WVQRVVEKFLK-OH [IS181]"
  cytotoxicity at 72 h, 50 μg/ml [%]: -4.81

====

- Test system: Human Keratinocytes (HaCaT)
- TEST_DETAILS: Cell viability (MTT assay) in HaCaT
- Type: cell-based
- EXPERIMENTAL_PARAMETERS: 72 h
pIC50: −log10 of the molar value.

- SUBSTANCE: "H-WVQRVVEKFLK-OH [IS181]"
  ASSAY_TARGET: "Human Keratinocytes (HaCaT)"
  pIC50: 3.54

====

- TEST_DETAILS: Cell viability (MTT assay) in PBMCs
- Assay type: cell-based, Human
- EXPERIMENTAL_PARAMETERS: human, peripheral blood mononuclear cells (PBMCs); PBMCs, 24 h, 10 μg/ml

- SUBSTANCE: "H-WVQRVVEKFLK-OH [IS181]"
  cytotoxicity at 24 h, 10 μg/ml / %: -76.5

====

- TEST_DETAILS: In vitro combination Anthralin and IS 181 (MTT)
- Assay type: cell-based, Human
- EXPERIMENTAL_PARAMETERS: human, HaCaT keratinocytes, IS 181 500 μg/ml alone, read-out: percent inhibition of cell viability/cytotoxicity

- SUBSTANCE: "H-WVQRVVEKFLK-OH [IS181]"
  U: "%"
  cytotoxicity at 72 h, 500 μg/ml: 39.4

All values here come from patent US10538561B2.
